Catalogue of percentage of EdU-negative readings, one per entry.
# Tested on: hTERT-HMEC
# procedureDetails: percentage of EdU-negative (G0-arrested) nuclei per well, 72 h; higher = more G0 arrest;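 note: secreted proteins added to cultured cells, EdU pulse at the end, nuclei found by Hoechst imaging, EdU status from nuclear versus surrounding ring intensity ratio, PBS as neutral control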
# assayContext: protein concentration 0.0357143 µM; reference: sequence is the full UniProt precursor, the tested protein was the secreted form or ectodomain
Number in %, nothing else.

MGPLSAPPCTEHIKWKGLLVTASLLNFWNLPTTAQVTIEAQPPKVSEGKDVLLLVHNLPQNLTGYIWYKGQIRDLYHYITSYVVDGQIIIYGPAYSGRETAYSNASLLIQNVTREDAGSYTLHIIKRGDGTRGVTGYFTFTLYLETPKPSISSSNLNPREAMETVILTCDPETPDTSYQWWMNGQSLPMTHRFQLSETNRTLFLFGVTKYTAGPYECEIRNSGSASRSDPVTLNLLHGPDLPRIHPSYTNYRSGDNLYLSCFANSNPPAQYSWTINGKFQQSGQNLFIPQITTKHSGLYVCSVRNSATGEESSTSLTVKVSASTRIGLLPLLNPT: 4.65
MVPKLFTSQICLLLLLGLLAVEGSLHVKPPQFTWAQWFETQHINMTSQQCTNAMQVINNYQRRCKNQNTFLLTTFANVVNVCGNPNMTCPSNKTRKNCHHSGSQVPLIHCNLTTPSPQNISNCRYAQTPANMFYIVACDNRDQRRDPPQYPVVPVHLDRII: 4.43

Now consider the entry below.
Which percentage of EdU-negative is listed for MKLQCVSLWLLGTILILCSVDNHGLRRCLISTDMHHIEESFQEIKRAIQAKDTFPNVTILSTLETLQIIKPLDVCCVTKNLLAFYVDRVFKDHQEPNPKILRKISSIANSFLYMQKTLRQCQEQRQCHCRQEATNATRVIHDNYDQLEVHAAAIKSLGELDVFLAWINKNHEVMFSA [Q9UHD0] ? 5.09

* * *

# Test system: MCF7
# procedureDetails: percentage of EdU-negative (G0-arrested) nuclei per well, 72 h; higher = more G0 arrest
# assayContext: protein concentration 0.0225 µM; reference: sequence is the full UniProt precursor, the tested protein was the secreted form or ectodomain
recordedEndpoint: percentage of EdU-negative (%)
Number in %, nothing else.

MFHQIWAALLYFYGIILNSIYQCPEHSQLTTLGVDGKEFPEVHLGQWYFIAGAAPTKEELATFDPVDNIVFNMAAGSAPMQLHLRATIRMKDGLCVPRKWIYHLTEGSTDLRTEGRPDMKTELFSSSCPGGIMLNETGQGYQRFLLYNRSPHPPEKCVEEFKSLTSCLDSKAFLLTPRNQEACELSNN: 23.6

Which percentage of EdU-negative is listed for MMQKLLKCSRLVLALALILVLESSVQGYPTRRARYQWVRCNPDSNSANCLEEKGPMFELLPGESNKIPRLRTDLFPKTRIQDLNRIFPLSEDYSGSGFGSGSGSGSGSGSGFLTEMEQDYQLVDESDAFHDNLRSLDRNLPSDSQDLGQHGLEEDFML ? 24.3

Now this one: MVGKLKQNLLLACLVISSVTVFYLGQHAMECHHRIEERSQPVKLESTRTTVRTGLDLKANKTFAYHKDMPLIFIGGVPRSGTTLMRAMLDAHPDIRCGEETRVIPRILALKQMWSRSSKEKIRLDEAGVTDEVLDSAMQAFLLEIIVKHGEPAPYLCNKDPFALKSLTYLSRLFPNAKFLLMVRDGRASVHSMISRKVTIAGFDLNSYRDCLTKWNRAIETMYNQCMEVGYKKCMLVHYEQLVLHPERWMRTLLKFLQIPWNHSVLHHEEMIGKAGGVSLSKVERSTDQVIKPVNVGALSKWVGKIPPDVLQDMAVIAPMLAKLGYDPYANPPNYGKPDPKIIENTRRVYKGEFQLPDFLKEKPQTEQVE 26.5

* * *

# Tested on: hTERT-HMEC
# procedureDetails: percentage of EdU-negative (G0-arrested) nuclei per well, 72 h; higher = more G0 arrest
# assayContext: protein concentration 0.225 µM; reference: sequence is the full UniProt precursor, the tested protein was the secreted form or ectodomain
recordedEndpoint: percentage of EdU-negative (%)
Number in %, nothing else.

MIRTLLLSTLVAGALSCGVSTYAPDMSRMLGGEEARPNSWPWQVSLQYSSNGQWYHTCGGSLIANSWVLTAAHCISSSGIYRVMLGQHNLYVAESGSLAVSVSKIVVHKDWNSDQVSKGNDIALLKLANPVSLTDKIQLACLPPAGTILPNNYPCYVTGWGRLQTNGALPDDLKQGQLLVVDYATCSSSGWWGSTVKTNMICAGGDGVICTCNGDSGGPLNCQASDGRWEVHGIGSLTSVLGCNYYYKPSIFTRVSNYNDWINSVIANN: 5.75

Which percentage of EdU-negative is listed for MGCRAASGLLPGVAVVLLLLLQSTQSVYIQYQGFRVQLESMKKLSDLEAQWAPSPRLQAQSLLPAVCHHPALPQDLQPVCASQEASSIFKTLRTIANDDCELCVNVACTGCL ? 9.77

Now this one: MAGRLLGKALAAVSLSLALASVTIRSSRCRGIQAFRNSFSSSWFHLNTNVMSGSNGSKENSHNKARTSPYPGSKVERSQVPNEKVGWLVEWQDYKPVEYTAVSVLAGPRWADPQISESNFSPKFNEKDGHVERKSKNGLYEIENGRPRNPAGRTGLVGRGLLGRWGPNHAADPIITRWKRDSSGNKIMHPVSGKHILQFVAIKRKDCGEWAIPGGMVDPGEKISATLKREFGEEALNSLQKTSAEKREIEEKLHKLFSQDHLVIYKGYVDDPRNTDNAWMETEAVNYHDETGEIMDNLMLEAGDDAGKVKWVDINDKLKLYASHSQFIKLVAEKRDAHWSEDSEADCHAL [Q9BW91] 5.67

Now this one: MRLGSPGLLFLLFSSLRADTQEKEVRAMVGSDVELSCACPEGSRFDLNDVYVYWQTSESKTVVTYHIPQNSSLENVDSRYRNRALMSPAGMLRGDFSLRLFNVTPQDEQKFHCLVLSQSLGFQEVLSVEVTLHVAANFSVPVVSAPHSPSQDELTFTCTSINGYPRPNVYWINKTDNSLLDQALQNDTVFLNMRGLYDVVSVLRIARTPSVNIGCCIENVLLQQNLTVGSQTGNDIGERDKITENPVSTGEKNAATWSILAVLCLLVVVAVAIGWVCRDRCLQHSYAGAWAVSPETELTGHV 6.86

Now this one: MVPRISAAIFIFELLGSNSEGVTDLRLWLCQPAPRCGEWTYNPLEQCCDDGVILDLNQTRLCGSSCTFWPCFQHCCLESLGSQNQTVVRFKVPGMKPDCKSSPITRICAQEYHPKSPVSRSDLI [Q6B9Z1] 5.64

Now this one: MALSWVLTVLSLLPLLEAQIPLCANLVPVPITNATLDRITGKWFYIASAFRNEEYNKSVQEIQATFFYFTPNKTEDTIFLREYQTRQNQCFYNSSYLNVQRENGTVSRYEGGREHVAHLLFLRDTKTLMFGSYLDDEKNWGLSFYADKPETTKEQLGEFYEALDCLCIPRSDVMYTDWKKDKCEPLEKQHEKERKQEEGES 5.06

Now this one: MRLLPLLRTVLWAAFLGSPLRGGSSLRHVVYWNSSNPRLLRGDAVVELGLNDYLDIVCPHYEGPGPPEGPETFALYMVDWPGYESCQAEGPRAYKRWVCSLPFGHVQFSEKIQRFTPFSLGFEFLPGETYYYISVPTPESSGQCLRLQVSVCCKERKSESAHPVGSPGESGTSGWRGGDTPSPLCLLLLLLLLILRLLRIL 8.57

* * *

Catalogue of percentage of EdU-negative readings, one per entry.
# System: hTERT-HMEC
# procedureDetails: percentage of EdU-negative (G0-arrested) nuclei per well, 72 h; higher = more G0 arrest
# assayContext: protein concentration 0.0225 µM; reference: sequence is the full UniProt precursor, the tested protein was the secreted form or ectodomain

# annotated cases, reported percentage of EdU-negative shown
MVNLAAMVWRRLLRKRWVLALVFGLSLVYFLSSTFKQEERAVRDRNLLQVHDHNQPIPWKVQFNLGNSSRPSNQCRNSIQGKHLITDELGYVCERKDLLVNGCCNVNVPSTKQYCCDGCWPNGCCSAYEYCVSCCLQPNKQLLLERFLNRAAVAFQNLFMAVEDHFELCLAKCRTSSQSVQHENTYRDPIAKYCYGESPPELFPA [Q9H741]: 5.34%
MSNTQAERSIIGMIDMFHKYTRRDDKIEKPSLLTMMKENFPNFLSACDKKGTNYLADVFEKKDKNEDKKIDFSEFLSLLGDIATDYHKQSHGAAPCSGGSQ: 5.43%
MRAAGTLLAFCCLVLSTTGGPSPDTCSQDLNSRVKPGFPKTIKTNDPGVLQAARYSVEKFNNCTNDMFLFKESRITRALVQIVKGLKYMLEVEIGRTTCKKNQHLRLDDCDFQTNHTLKQTLSCYSEVWVVPWLQHFEVPVLRCH: 4.61%
MAGGRHRRVVGTLHLLLLVAALPWASRGVSPSASAWPEEKNYHQPAILNSSALRQIAEGTSISEMWQNDLQPLLIERYPGSPGSYAARQHIMQRIQRLQADWVLEIDTFLSQTPYGYRSFSNIISTLNPTAKRHLVLACHYDSKYFSHWNNRVFVGATDSAVPCAMMLELARALDKKLLSLKTVSDSKPDLSLQLIFFDGEEAFLHWSPQDSLYGSRHLAAKMASTPHPPGARGTSQLHGMDLLVLLDLIGAPNPTFPNFFPNSARWFERLQAIEHELHELGLLKDHSLEGRYFQNYSYGGVIQDDHIPFLRRGVPVLHLIPSPFPEVWHTMDDNEENLDESTIDNLNKILQVFVLEYLHL: 5.21%

Now consider the entry below.
Which percentage of EdU-negative is listed for MESSRVRLLPLLGAALLLMLPLLGTRAQEDAELQPRALDIYSAVDDASHEKELIEALQEVLKKLKSKRVPIYEKKYGQVPMCDAGEQCAVRKGARIGKLCDCPRGTSCNSFLLKCL ? 5.12%

Entry source: the supplement of paper PMC11316812
